- System: PfAP2-G AP2 domain (GST-tagged)
- EXPERIMENT_NOTES: gcPBM binding intensity (ln(normalized median fluorescence intensity)); higher = stronger DNA binding
Whole data set: some 25,000 sequences, median “ln(normalized median fluorescence intensity)” near 10, cut for the highest 2% near 12. This excerpt belongs to a sample that is enriched for the highest values.
MEASUREMENT_KIND: gcPBM binding intensity (ln)

// worked examples, gcPBM binding intensity (ln) included
# SEQ_TEXT, gcPBM binding intensity (ln)
data = [
    ("GTTTGGTGGTGTTTTGGTACGTACGGGGGTGTATGT [XGTACX_site1211]", 11.7),
    ("ATATACATAATCTTCTTGCACTTTTTTTTTTTTTTT [GTGCAC_site9410]", 10.3),
    ("TTTTTATTTTTGTAGTGTACTTTATTTTTTTTGTTT [XGTACX_site8887]", 11.6),
    ("TAAAATATATTTTTCTGTACACAAAAATATATTAAA [XGTACX_site2813]", 11.5),
    ("GTAAATACACATATGTGTACATATATATATATATAT [XGTACX_site3696]", 11.5),
    ("TATATATCCATGTGTACACACAAAAAAAAATAAAGT [CACACA_site7107]", 11.7),
]

Which gcPBM binding intensity (ln) reading was recorded for the sequence TAACACCAAACTAAATGTACACACATACATAAATAT [XGTACX_site2201] ?
11.2

// gcPBM binding intensity (ln) lookup, key: CAAGGAACCAGACACACACACATAAATGTATATATA [CACACA_site752]
10.1

Report gcPBM binding intensity (ln) for AAAAAAAAAAAAACAAGTACAAAGGATAGAAAAAAA [XGTACX_site4133] please.
11.2

Entry TGAAAAGAAAACACATGTACAAATATATAAATATAA [XGTACX_site6098] : reported gcPBM binding intensity (ln) = ?
10.8

Query (sequence): AATAAATAAATATATTGTACATATATATATATATAT [XGTACX_site8627] ; field requested: gcPBM binding intensity (ln)
11

Param item = TAGTATTAAAATATTTGTACTTATATGTATTATATA [XGTACX_site538] ; retrieve measured gcPBM binding intensity (ln).
11

Which value of gcPBM binding intensity (ln) has been reported for `TTATAAAATTACTTGGTGCATTAGAATATTTCAATA` in the records?
10.1

Which value of gcPBM binding intensity (ln) has been reported for CTTATTTCCTTTTGTAGTACCTTATAATATATATAA [XGTACX_site8873] in the records?
11.3
